Data provenance is paper PMC10397247.

Target: T1, 4H2837-AA
T1 chain: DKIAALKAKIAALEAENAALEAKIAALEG
Experiment: two-hybrid library CCmax;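 also: natural log of median RNA to DNA barcode read ratio; higher means stronger binding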
Conditions: mean of both orientations
The threshold is inclusive: interaction score of exactly -1 counts as YES; values below receive NO.

binder="DKIAALEAEIAALKAKIAALEAKNAALEG [4H2151-AA]" assigned_label=NO
binder="DENAALEAKIAALKAEIAALEAKNAALKG [4H1352-AA]" assigned_label=YES
binder="DENAALEAEIAALEAKNAALKAKIAALKG [4H1086-AA]" assigned_label=YES
binder="DKIAALEAENAALEAEIAALKAKIAALKG [4H2190-AA]" assigned_label=NO
binder="DENAALEAKIAALEAKIAALKAENAALKG [4H1324-AA]" assigned_label=NO
binder="DKIAALEAKIAALKAENAALKAEIAALEG [4H2393-AA]" assigned_label=YES
binder="DENAALKAEIAALKAKIAALEAENAALKG [4H1636-AA]" assigned_label=NO
binder="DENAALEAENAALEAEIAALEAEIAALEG [4H1153-AA]" assigned_label=NO
binder="DKIAALKAEIAALEAEIAALKAKNAALEG [4H2575-AA]" assigned_label=NO
binder="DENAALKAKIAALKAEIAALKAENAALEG [4H1867-AA]" assigned_label=NO
binder="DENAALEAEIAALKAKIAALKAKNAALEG [4H1135-AA]" assigned_label=YES
binder="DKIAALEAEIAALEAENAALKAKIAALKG [4H2078-AA]" assigned_label=YES
binder="DKIAALEAKIAALEAKNAALEAEIAALKG [4H2354-AA]" assigned_label=YES
